# assay: Plasma protein binding (Rapid Equilibrium Dialysis)
# Assay type: in vitro ADME, human
# stated.conditions: human, plasma, Mean plasma fraction Unbound Fuplasma
Recorded fraction unbound at 4 h, 5 µM, one value per entry.
reported.metric: fraction unbound at 4 h, 5 µM

> print(dat)
                                   molecule  value.measured
1  CCCCNC(=S)Nc1nc2ccccc2s1 [Molecule 1, 1-(benzo[d]thiazol-2-yl)-3-butylthiourea]           0.001
2  CCCCNC(=S)Nc1nc2ccccc2o1 [Molecule 12, 1-(benzo[d]oxazol-2-yl)-3-butylthiourea]           0.002
3                     CCCCNC(=S)Nc1nc(C)co1           0.037
4                        CCCCNC(=S)Nc1nccs1          0.0098
5                 COCCCNC(=S)Nc1nc2ccccc2s1           0.055

----------
# Tested on: Caco-2 cells
# assay: Caco-2 permeability
# stated.conditions: B→A; assay duration 1 hr
Recorded dQ/dt (rate of permeation), mean, one value per entry.
reported.metric: dQ/dt (rate of permeation), mean

> print(dat)
                                   molecule  value.measured
1  CCCCNC(=S)Nc1nc2ccccc2o1 [Molecule 12, 1-(benzo[d]oxazol-2-yl)-3-butylthiourea]         2.7E-05
2                     CCCCNC(=S)Nc1nc(C)co1         3.8E-04
3                        CCCCNC(=S)Nc1nccs1         2.3E-04
4  CCCCNC(=S)Nc1nc2ccccc2s1 [Molecule 1, 1-(benzo[d]thiazol-2-yl)-3-butylthiourea]         2.4E-05
5                 COCCCNC(=S)Nc1nc2ccccc2s1         8.0E-05

----------
# assay.target: UniProt:P08684
# Sequence (P08684 2-503): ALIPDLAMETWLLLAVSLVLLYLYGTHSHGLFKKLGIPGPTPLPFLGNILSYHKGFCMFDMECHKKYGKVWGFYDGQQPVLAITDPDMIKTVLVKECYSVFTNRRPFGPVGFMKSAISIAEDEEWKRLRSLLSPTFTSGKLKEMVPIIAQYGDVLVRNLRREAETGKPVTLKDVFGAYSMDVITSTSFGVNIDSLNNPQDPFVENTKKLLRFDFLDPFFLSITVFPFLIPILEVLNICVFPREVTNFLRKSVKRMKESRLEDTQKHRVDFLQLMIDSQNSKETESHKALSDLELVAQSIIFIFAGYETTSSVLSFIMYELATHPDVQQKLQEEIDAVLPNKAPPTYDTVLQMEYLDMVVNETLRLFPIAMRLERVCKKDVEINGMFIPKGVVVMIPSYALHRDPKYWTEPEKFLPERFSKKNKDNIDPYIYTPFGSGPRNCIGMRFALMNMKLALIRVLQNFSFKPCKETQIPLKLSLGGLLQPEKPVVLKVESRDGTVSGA
# assay: Cytochrome P450 inhibition
# Assay type: in vitro ADME
# stated.conditions: liver microsomes, pH 7.4, probe testosterone
# Method: Table S4. Inhibition of cytochrome P450s. Compounds were tested for inhibition of P450s using the enzyme substrate pairs and conditions noted. IC50s (µM) were calculated. Control P450 inhibitors were included for each isoform. […] After separation on a C18 reverse phase HPLC column (Agilent Zorbax StableBond 3.5µm, 2.1 x 30 mm) using an acetonitrile -water gradient system, peaks were analyzed by mass spectrometry (MS) using ESI ionization in MRM mode. […]
reported.metric: IC50 at 10 min

> print(dat)
                                   molecule    assay.target  value.measured
1   COCCCNC(=S)Nc1nc2ccccc2s1 [Molecule 24]  UniProt:P08684         > 20 µM
2  CCCCNC(=S)Nc1nccs1 [Molecule 14, 1-butyl-3-(thiazol-2-yl)thiourea]  UniProt:P08684         > 20 µM
3  CCCCNC(=S)Nc1nc(C)co1 [Molecule 21, 1-butyl-3-(4-methyloxazol-2-yl)thiourea]  UniProt:P08684         11.9 µM
4  CCCCNC(=S)Nc1nc2ccccc2s1 [Molecule 1, 1-(benzo[d]thiazol-2-yl)-3-butylthiourea]  UniProt:P08684         > 20 µM
5  CCCCNC(=S)Nc1nc2ccccc2o1 [Molecule 12, 1-(benzo[d]oxazol-2-yl)-3-butylthiourea]  UniProt:P08684         > 20 µM
